molecular target: MCH-5; experiment: Fluorescence enzyme assay, determination of IC50 values (Mch5); conditions: 30 minutes preincubation at room temperature; substrate Acetyl-Asp-Glu-Val-Asp-amino-4-methylcoumarin
Residues, ends and D or L forms follow the SMILES beside them. *: point of attachment. Cbz = O=C(OCc1ccccc1)*
experimental_endpoint: IC50 (nM)
Numeric answer only, unit nM assumed.

Item: CC(C)[C@H](NC(=O)OCc1ccccc1)C(=O)N[C@@H](C)C(=O)N[C@H](C=O)CC(=O)O [Ref., Cbz-ValAlaAsp-H] (Cbz-Val-Ala-Asp-aldehyde) | IC50: 2960

* * *

molecular target: CPP32; test: Fluorescence enzyme assay, determination of IC50 values (CPP32); conditions: recombinant enzyme; 30 minutes preincubation at room temperature; substrate Acetyl-Asp-Glu-Val-Asp-amino-4-methylcoumarin
Residues, ends and D or L forms follow the SMILES beside them. *: point of attachment. Cbz = O=C(OCc1ccccc1)*
experimental_endpoint: IC50
Just so you know, I need the unit written after the number.

Item: CC(C)[C@H](NC(=O)OCc1ccccc1)C(=O)N[C@@H](C)C(=O)N[C@H](C=O)CC(=O)O [Ref., Cbz-ValAlaAsp-H] (Cbz-Val-Ala-Asp-aldehyde) | IC50: 47 µM

* * *

target: CPP32; assay: Determination of dissociation constant Ki and irreversible rate constant k3 for irreversible inhibitors (CPP32); type: biochemical; conditions: continuous assay for sixty minutes, reaction initiated by adding the enzyme
*: point of attachment. Cbz = O=C(OCc1ccccc1)*; CH2F = FC*
experimental_endpoint: pKi
# reply with the number alone; pKi is -log10 of concentration in mol/L

Item: Cbz-Val-Ala-Asp-CH2F [Reference] | pKi: 6.09

* * *

Biological target: MCH-2
Assay: Fluorescence enzyme assay, determination of IC50 values (Mch2)
Conditions: 30 minutes preincubation at room temperature; substrate Acetyl-Asp-Glu-Val-Asp-amino-4-methylcoumarin
Procedure: The substrate is Acetyl-Tyr-Val-Ala-Asp-amino-4-methylcoumarin (AMC) for the ICE assay and Acetyl-Asp-Glu-Val-Asp-amino-4-methylcoumarin for the CPP32, Mch2, Mch3 and Mch5 assays. Enzyme reactions were run in ICE buffer (25 mM HEPES, 1 mM EDTA, 0.1% CHAPS, 10% sucrose, pH 7.5) containing 2 mM DTT at room temperature in duplicate. […]
Residues, ends and D or L forms follow the SMILES beside them. *: point of attachment. Cbz = O=C(OCc1ccccc1)*
experimental_endpoint: IC50

Item: CC(C)[C@H](NC(=O)OCc1ccccc1)C(=O)N[C@@H](C)C(=O)N[C@H](C=O)CC(=O)O [Ref., Cbz-ValAlaAsp-H] (Cbz-Val-Ala-Asp-aldehyde) | IC50: > 10 µM

* * *

molecular target: mICE; test: Fluorescence enzyme assay, determination of IC50 values (ICE); conditions: recombinant enzyme; 30 minutes preincubation at room temperature; substrate Acetyl-Tyr-Val-Ala-Asp-amino-4-methylcoumarin
Residues, ends and D or L forms follow the SMILES beside them. *: point of attachment. Cbz = O=C(OCc1ccccc1)*
experimental_endpoint: IC50
Just so you know, I need the unit written after the number.

// IC50 (mICE) for CC(C)[C@H](NC(=O)OCc1ccccc1)C(=O)N[C@@H](C)C(=O)N[C@H](C=O)CC(=O)O [Ref., Cbz-ValAlaAsp-H] (Cbz-Val-Ala-Asp-aldehyde) = 0.064 µM
